# tested_target: T1, human epidermal growth factor receptor (EGFR) (human, UniProt P00533 25-1210)
# T1 construct: whole, on cells; also called HER-1; ErbB1
# protocol_summary: flow cytometry on A431 cells

- binder: "humanized ICR62 antibody I-HLA/I-KB (antibody, human IgG1, V domains shown) VH: QVQLVQSGAEVKKPGASVKVSCKASGFTFTDYYMHWVRQAPGQGLEWMGWINPNSGYSTYAQKFQGRVTMTADTSISTAYMELSRLRSDDTAVYYCARLSPGGYYVMDAWGQGTTVTVSS VL: DIQMTQSPSSLSASVGDRVTITCKASQNINNYLNWYQQKPGKAPKRLIYNTNNLQTGVPSRFSGSGSGTEYTLTISSLQPEDFATYYCLQHNSFPTFGQGTKLEIKR"
  binding result: "binds"
- binder: "humanized ICR62 antibody I-HLA/I-KA (antibody, human IgG1, V domains shown) VH: QVQLVQSGAEVKKPGASVKVSCKASGFTFTDYYMHWVRQAPGQGLEWMGWINPNSGYSTYAQKFQGRVTMTADTSISTAYMELSRLRSDDTAVYYCARLSPGGYYVMDAWGQGTTVTVSS VL: DIQMTQSPSSLSASVGDRVTITCRASQGINNYLNWYQQKPGKAPKRLIYNTNNLQTGVPSRFSGSGSGTEYTLTISSLQPEDFATYYCLQHNSFPTFGQGTKLEIKR"
  binding result: "binds"

Values compiled from patent US20080286277A1.
